tested on: zebrafish embryos/larvae; assay: Quantification of parent compounds and metabolites in whole zebrafish embryos/larvae homogenate extracts; settings: 24 and 120 hpf; CBZ, PHE 31.25, 85, 250 µM; E-CBZ, HPPH 250 µM
MEASURED ATTRIBUTE: Uptake by embryos and larvae (quantified in homogenate extracts)

>>> reading("O=C1NC(=O)C(c2ccccc2)(c2ccccc2)N1")
"taken up"
>>> reading("NC(=O)N1c2ccccc2C=Cc2ccccc21 [CBZ, carbamazepine]")
"taken up"
